# tested-target: human GcgR (Homo sapiens)
# Sequence (P47871 26-477): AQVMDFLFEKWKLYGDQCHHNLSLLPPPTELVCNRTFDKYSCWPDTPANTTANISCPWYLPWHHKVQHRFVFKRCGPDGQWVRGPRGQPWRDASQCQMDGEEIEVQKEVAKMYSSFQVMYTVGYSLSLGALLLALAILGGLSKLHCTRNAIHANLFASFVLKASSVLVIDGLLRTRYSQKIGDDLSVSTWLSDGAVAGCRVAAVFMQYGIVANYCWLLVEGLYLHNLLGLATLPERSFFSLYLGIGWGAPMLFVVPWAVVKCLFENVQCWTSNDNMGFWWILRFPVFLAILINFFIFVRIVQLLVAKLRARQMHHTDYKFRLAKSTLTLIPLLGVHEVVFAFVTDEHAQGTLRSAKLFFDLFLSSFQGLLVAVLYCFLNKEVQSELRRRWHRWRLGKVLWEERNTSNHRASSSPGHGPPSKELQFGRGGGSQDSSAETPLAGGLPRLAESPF
# experimental-protocol: Functional cAMP activity in the presence of 1% HSA
# Type: cell-based
# condition-parameters: read-out: cAMP Rel EC50, hGcgR
pEC50: −log10 of the molar value. Starred links: 1 amine or outer side, 2 acyl side, 3 side chain; linkers in the order of their positions; H or OH if unused. Non-standard residues stand in square brackets, D forms with d. Groups on a side chain read outwards from the residue. No end group written: not given here. *: point of attachment. C20 diacid = O=C(O)CCCCCCCCCCCCCCCCCCC(=O)*; C18 diacid = O=C(O)CCCCCCCCCCCCCCCCC(=O)*; αMePhe(2-F) = C[C@](N)(Cc1ccccc1F)C(=O)O; γGlu = O=C(O)[C@H](CCC(=O)[*:2])N[*:1]; αMe4Pal = C[C@](N)(Cc1ccncc1)C(=O)O; αMeY = C[C@](N)(Cc1ccc(O)cc1)C(=O)O; 4Pal = N[C@@H](Cc1ccncc1)C(=O)O; αMeL = CC(C)C[C@](C)(N)C(=O)O; αMeS = C[C@](N)(CO)C(=O)O; Orn = NCCC[C@H](N)C(=O)O; AEEA = NCCOCCOCC(=O)O; Aib = CC(C)(N)C(=O)O
Binary classification by pEC50, with 6 as an inclusive lower bound for MET; all other cases are NOT MET.

1) H-Y[Aib]QGTFTSDFSK[αMeL]LDKK([AEEA-γGlu-C20 diacid])AQ[Aib]AFIEWLLAGGPSSGEPPPSEG-NH2 [Example 20]	MET
2) Y[Aib]QGTFTSD[4Pal]SQ[αMeL]LDKK([Glu-γGlu-C18 diacid])AQ[αMe4Pal]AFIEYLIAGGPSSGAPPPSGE-NH2 [Example 1086]	NOT MET
3) Y[Aib]QGT[αMePhe(2-F)]TSD[4Pal][αMeS]I[αMeL]LD[Orn]K([AEEA-γGlu-C18 diacid])AQ[αMe4Pal]EFI[dE][αMeY]LVEGGPSSGEPPPSGGGE-NH2 [Example 735]	MET

From: patent US20240270821A1
